- Assay Info: Plasma concentrations after administration to mice
- Assay type: in vivo
- Experimental Setup: mouse, 70 μmol/kg, mean sample time 60.5 min, read-out: Geometric Mean Plasma Concentration
Readout Name: concentration at 60.5 min

Cc1cc(-c2nc3cc(F)ccc3s2)ccc1N [Compound Ik] :: 4.11 µM

----------
- Assay Info: Plasma concentrations after administration to mice
- Assay type: in vivo
- Experimental Setup: mouse, 70 μmol/kg, mean sample time 15.5 min, read-out: Geometric Mean Plasma Concentration
Readout Name: concentration at 15.5 min (µM)

Cc1cc(-c2nc3cc(F)ccc3s2)ccc1N [Compound Ik] :: 3.27

----------
- Assay Info: Plasma concentrations after administration to mice
- Assay type: in vivo
- Experimental Setup: mouse, 70 μmol/kg, mean sample time 90.6 min, read-out: Geometric Mean Plasma Concentration
Readout Name: concentration at 90.6 min (µM)

Cc1cc(-c2nc3cc(F)ccc3s2)ccc1N :: 3.52

----------
- Assay Info: Plasma concentrations after administration to mice
- Assay type: in vivo
- Experimental Setup: mouse, 70 μmol/kg, mean sample time 360.0 min, read-out: Geometric Mean Plasma Concentration
Readout Name: concentration at 360 min (nM)

Cc1cc(-c2nc3cc(F)ccc3s2)ccc1N :: 590

----------
Readout Name: melting point

N#Cc1cc(-c2nc3cc(F)ccc3s2)ccc1N :: 268 to 270 °C
Nc1ccc(-c2nc3cc(F)ccc3s2)cc1CO :: 242 to 245 °C
CC(=O)Nc1ccc(-c2nc3cc(F)ccc3s2)cc1C :: 219 to 221 °C
Cc1cc(-c2nc3cc(I)ccc3s2)ccc1N :: 200 to 202 °C

----------
- Assay Info: Plasma concentrations after administration to mice
- Format: in vivo
- Experimental Setup: mouse, 70 μmol/kg, mean sample time 6.5 min, read-out: Geometric Mean Plasma Concentration
Readout Name: concentration at 6.5 min

Cc1cc(-c2nc3cc(F)ccc3s2)ccc1N :: 1530 nM

----------
- Assay Info: Plasma concentrations after administration to mice
- Type: in vivo
- Experimental Setup: mouse, 70 μmol/kg, mean sample time 20.8 min, read-out: Geometric Mean Plasma Concentration
Readout Name: concentration at 20.8 min (nM)

Cc1cc(-c2nc3cc(F)ccc3s2)ccc1N :: 2680

----------
- Tested on: MDA468
- Assay Info: In vitro cytotoxicity, 3-day MTT assay, MDA468
- Assay type: cell-based
- Experimental Setup: 72 h, n=8
pIC50: −log10 of the molar value.
Readout Name: pIC50

Nc1ccc(-c2nc3c(F)cccc3s2)cc1Br :: 7.62
Nc1ccc(-c2nc3c(F)cccc3s2)cc1Cl :: 8.71
Nc1ccc(-c2nc3ccc(F)cc3s2)cc1 :: 7.32
Cc1cc(-c2nc3cc(F)cc(F)c3s2)ccc1N :: 8.36
Cc1cc(-c2nc3c(F)c(F)ccc3s2)ccc1N :: 9.17
Nc1ccc(-c2nc3cc(F)ccc3s2)cc1CO :: 9.37
Nc1ccc(-c2nc3cc(F)ccc3s2)cc1Cl :: 7.72
Cc1cc(-c2nc3cc(F)c(F)cc3s2)ccc1N :: 8.45
Nc1ccc(-c2nc3c(F)cccc3s2)cc1I :: 8.04
Cc1cc(-c2nc3ccc(F)cc3s2)ccc1N :: 9.96
Nc1ccc(-c2nc3ccc(F)cc3s2)cc1Br :: 7.16
Nc1ccc(-c2nc3c(F)cccc3s2)cc1 :: 7.53
Nc1ccc(-c2nc3cc(F)ccc3s2)cc1Br :: 9.70
Cc1cc(-c2nc3cccc(I)c3s2)ccc1N :: 6.49
